Ref: ChEMBL document CHEMBL4513216

measurement_description: Toxicity liver stage against HepG2, at 10uM
Assay type: cell-based
Set-up: test concentration 10 uM, cell line HepG2-A16-CD81EGFP
condition_label: human, HepG2-A16-CD81EGFP cells; read-out: INHIBITION

| compound | cytotoxicity at 10 µM, % |
| --- | --- |
| Cc1ccc(CNC(=O)Nc2nnc(C(C)C)s2)n1C | -10 |
| Cc1ccccc1N1CCCN(C(=O)CN2C(=O)OC[C@@H]2C(C)C)CC1 | 4.02 |
| CCc1nc(N)nc(NCc2cnn3cccnc23)c1C | 52.5 |
| CN(C)CCO[C@H]1CN(Cc2ccoc2)[C@@H]2COC[C@H]12 | -1.23 |
| O=C(NCC(=O)N1CCCCC1)c1ccc(Cl)cc1I | -11.5 |
| CN1CCC(c2nc3ccc(-c4ccccc4)cn3n2)CC1 | -5.29 |
| COCC1CCN(C(=O)c2cccc(S(=O)(=O)NC3CCCC3)c2)C1 (configuration not stated) | 10.8 |
| COc1ccc(CCN2CCc3c(nc(C4CC4)n3C)C2)cc1 | -0.729 |
| Cc1nn(C)c2nc(N3CCCCC3c3nccs3)sc12 (configuration not stated) | 10.2 |
| Cn1cnc2c1C(COCc1cccnc1)N(Cc1ccccn1)CC2 (configuration not stated) | -13.3 |
| Cc1ccccc1CN(CC(=O)O)C(=O)COCC1CC1 | -1.92 |
| COCCn1ccnc1C1CCCN(c2cc(OC)nc(N)n2)C1 (configuration not stated) | 11.2 |

* * *

measurement_description: Toxicity liver stage against HepG2, at 10uM
Assay type: cell-based
Parameters: test concentration 10 uM, cell line HepG2-A16-CD81EGFP
condition_label: human, HepG2-A16-CD81EGFP cells; read-out: INHIBITION

| compound | quantity_unit | cytotoxicity at 10 µM |
| --- | --- | --- |
| Cc1cc2ncn(C[C@]3(O)CCCN4CCCC[C@@H]43)c2cc1C | % | -2.42 |
| COc1ccc(S(=O)(=O)N2CCc3ccc(Cl)cc32)cc1C(=O)O | % | -11.6 |
| Cc1cccc(N2CCN(c3ccn4c(=O)[nH]nc4n3)CC2)c1C | % | 36 |
| CCc1nc(CN(C)Cc2nnc(-c3cccs3)o2)cs1 | % | 6.37 |
| CC(C)OCc1nn(C)c2c1CCN(Cc1ccco1)C2 | % | -115 |
| O=C(O)Cc1cnc(-c2c(Cl)cccc2Cl)s1 | % | 2.84 |
| O=C1OCCN1Cc1ncnn1Cc1c(F)cccc1Cl | % | -1.26 |
| COCCN(Cc1ccncc1)C(=O)C1COc2ccccc2C1 (configuration not stated) | % | 6.77 |
| COCCN1CCC(NCc2cccc(C)c2)C1 (configuration not stated) | % | 2.76 |
| COc1ccccc1C(=O)NCCC(=O)Nc1c(C)nn(C)c1C | % | -9.49 |
| CC(C)(C)OC(=O)N1CCC[C@H](NCC2CCOCC2)C1 | % | -0.678 |
| O=C1CC[C@H](C(=O)Nc2cnn(-c3ccccc3Br)c2)N1 | % | -2.84 |

* * *

measurement_description: Toxicity liver stage against HepG2, at 10uM
Format: cell-based
Design: test concentration 10 uM, cell line HepG2-A16-CD81EGFP
condition_label: human, HepG2-A16-CD81EGFP cells; read-out: INHIBITION
Entries and their measured cytotoxicity at 10 µM follow.
reported_property: cytotoxicity at 10 µM (%)

| molecule | reported_property | quantitative_result |
| --- | --- | --- |
| Cc1noc(C)c1S(=O)(=O)NC(=O)COc1ccc2c(c1)CCC2 | cytotoxicity at 10 µM | -3.07 |
| CC(=O)Nc1nc(C(=O)N2CCCC(n3ccnc3)C2)cs1 (stereo unspecified) | cytotoxicity at 10 µM | -3.44 |
| O=C(C1CCOCC1)N1CCC2(CC1)CN(c1ccsc1)C(=O)CO2 | cytotoxicity at 10 µM | -63.4 |
| COCCCN1C(=O)CC[C@H]2CN(Cc3ncc[nH]3)CC[C@H]21 | cytotoxicity at 10 µM | -0.462 |
| CCC(=O)NCC(c1ccc(SC)cc1)N1CCc2sccc2C1 (stereo unspecified) | cytotoxicity at 10 µM | 4.05 |
| CCOC(=O)N1CCN(C(=O)c2cc(-c3ccc(Cl)cc3Cl)on2)CC1 | cytotoxicity at 10 µM | 2.42 |
